# System: PC-3
# ASSAY DETAILS: NCI tumour cell line growth inhibition, 48 h
The source made the active and inactive calls. Rule as the data show it: active = GI50 up to about 1.1 µM and inactive = higher.
QUANTITY NAME: GI50

Cc1ccc(-c2cc(-c3ccc(Cl)cc3)nc(/N=C3\C(=O)N(CN4CCOCC4)c4ccc(Cl)cc43)n2)cc1: 30 µM (inactive)
Cc1cc(C)c2c(c1)CC1(Cc3c(ccc(C)c3C)C1=O)C2=O (stereo unspecified): > 100 µM (inactive)
Nc1nc(Cl)c(C=O)c(NCC2(CO)CC(CCc3ccccc3)C2)n1 (stereo unspecified): 6.43 µM (inactive)
C/C(NC(=O)c1ccccc1)=C(/C(=O)c1ccccc1)[C@@H]1OC(C)(C)O[C@@H]1[C@H]1COC(C)(C)O1: 30.4 µM (inactive)
O=S(=O)([N-]c1nc2ccccc2nc1-[n+]1ccccc1)c1ccccc1: > 100 µM (inactive)
COCC#C[C@@]1(O)CCCCC1CC(OC)OC (stereo partly specified): > 100 µM (inactive)

----------
Recorded GI50, one value per entry.
# Test system: UACC-257
# ASSAY DETAILS: NCI tumour cell line growth inhibition, 48 h
The source made the active and inactive calls. Rule as the data show it: active = GI50 up to about 1.1 µM and inactive = higher.
QUANTITY NAME: GI50

O=C(O)c1oc(C(=O)O)c(C(=O)O)c1C(=O)O: > 100 µM (inactive)
O=C(NC1=C(Cl)C(=O)c2ccccc2C1=O)c1ccccc1: > 10 µM (inactive)
COc1ccc(OCC(C)(C)O)cc1: > 100 µM (inactive)
Nc1nc(Cl)cc(NCCCCCCCCCCNc2cc(Cl)nc(N)n2)n1: 1.05 µM (active)
CC(=O)OC1/C=C(\C)C(OC(C)=O)C/C=C(/C)CCC2C(/C=C/C1=O)C2(C)C (stereo unspecified): > 100 µM (inactive)
CN(C)CC1CCCC1=O (stereo unspecified): 1.5 µM (inactive)
N#C/C(=C\c1ccc(O)c(O)c1)C(=O)NC1CCC(CC2CCC(NC(=O)/C(C#N)=C/c3ccc(O)c(O)c3)CC2)CC1 (stereo unspecified): 2.84 µM (inactive)
C=CC[N+]12CN3CN(CN(C3)C1)C2: 24.5 µM (inactive)
COc1ccc(C(=O)N2CCN(c3ccc4c(c3)OCC(=O)N4)CC2)cc1OC: > 100 µM (inactive)
CC12CCC(C(Nc3cc(C(F)(F)F)cc(C(F)(F)F)c3)C1=O)C2(C)C (stereo unspecified): > 100 µM (inactive)
CC1=C(C)C2(C#N)C(=O)N3C(=NC(c4ccco4)NC3c3ccco3)C2(C#N)C(c2ccco2)N1 (stereo unspecified): > 100 µM (inactive)

----------
# System: ACHN
# ASSAY DETAILS: NCI tumour cell line growth inhibition, 48 h
The source made the active and inactive calls. No stated cut-off is given here; in the data, active = GI50 up to about 1.1 µM and inactive = higher.
Outcome codes: 1 (yes) (active), 0 (no) (inactive)

Oc1cc(O)c2c(c1)O[C@H](c1ccc(O)c(O)c1)[C@@H](O)C2 [CIANIDANOL]: 0 (no)
Cc1cc(NS(=O)(=O)c2ccc(Nc3c4ccccc4nc4c(C(=O)N5CCN(CCOS(C)(=O)=O)CC5)cccc34)cc2)no1: 0 (no)
COc1ccc(/C=N/NC(=O)CSc2nc(-c3ccccc3)c(-c3ccccc3)[nH]2)cc1OC: 0 (no)
CCCCC[C@H]1CC=CC(=O)O1: 0 (no)
C[C@]12CC/C(=N\O)C=C1CC[C@@H]1[C@@H]2CC[C@]2(C)C(=N/O)/C(=C/c3ccc([N+](=O)[O-])cc3)C[C@@H]12: 0 (no)
Nc1nc(Cl)cc(NCCCCCCCCCCNc2cc(Cl)nc(N)n2)n1: 1 (yes)
COc1cc(C)cc(C(=O)/C=C/c2ccccc2)c1O: 0 (no)
CN(C)CCCNc1c2ccccc2[n+]([O-])c2ccccc12: 0 (no)
CC[C@H]1C=CCC[C@@]2(C[C@@H]3CC[C@@H]4[C@H](C(=O)OCCCCCCCCCCCCCCCC(=O)N(CCCN)CCCCN)[C@]5(CCC[C@@H](C)O5)NC(=[N+]34)N2)O1: 1 (yes)
CC(C)=Cc1cc(C(=O)Nc2ccc(Cl)c(Cl)c2)nc(N)n1: 0 (no)
CN(C)c1ccc(C2CC(=O)CC(c3ccc(N(C)C)cc3)C23C(=O)NC(=S)NC3=O)cc1 (stereo unspecified): 0 (no)
CN(C)Cc1cc(Cl)c(O)c(CN(C)C)c1: 0 (no)
O=[N+]([O-])c1cccc2c(/N=N/c3ccc4ccccc4c3O)c(O)cc(S(=O)(=O)O)c12: 0 (no)
C[C@]12CC[C@H](OC3CCCCO3)CC1=CC[C@@H]1C2CC[C@]2(C)/C(=N/OCCC#N)CCC12 (stereo partly specified): 0 (no)
COc1ccc(C2C3C(=O)C=CC(=O)C3[C@@H]2C)cc1OC (stereo partly specified): 0 (no)
N#Cc1sc2c(c1OC(=O)c1ccc(Cl)cc1)c(=O)n(-c1ccccc1)c(=S)n2-c1ccccc1: 0 (no)
COc1ccc(/N=C\c2cc(OC)c(OC)c(OC)c2)cc1: 0 (no)
Cc1c(C(=O)/C=C/c2cccc3ccccc23)[n+]([O-])c2ccccc2[n+]1[O-]: 0 (no)
COc1c2c(nc3ccccc13)-c1cc3c(c(=O)n1C2)COC(=O)C3(O)CC(=O)N1CCOCC1 (stereo unspecified): 0 (no)
COC(=O)C(CC(=O)Nc1ccc(Cl)c(Cl)c1)C(=O)C(=O)NC1C2CC3CC(C2)CC1C3 (stereo unspecified): 0 (no)
CCOC(=O)/C(=C/c1ccc[nH]1)P(=O)(OCC)OCC: 0 (no)
C/C=C(\C)C(=O)OC1C(C)=C2C(C1OC(=O)CCCC)C(C)(OC(C)=O)CC(OC(=O)CCCC)C1(O)C2OC(=O)C1(C)O (stereo unspecified): 0 (no)
CN(C)CCNc1ccc2nnn3c4ccccc4c(=O)c1c23: 0 (no)
O=C(CCc1cc(-c2ccccc2)nc(S)n1)N(Cc1ccccc1)Cc1ccccc1: 0 (no)
CCOC(=O)C(NC(=O)c1ccccc1)(Nc1ccc(Cl)cc1C(F)(F)F)C(F)(F)F (stereo unspecified): 0 (no)
C=C1[C@@H](OC(C)=O)[C@H]2[C@@H](OC(C)=O)[C@@](C)(OC(C)=O)C[C@]2(OC(C)=O)C(=O)[C@@H](C)/C=C/C(C)(C)C(=O)C[C@H]1OC(C)=O: 0 (no)
NC(=O)CN1CCN(c2nc(N3CCCC3)c3nc(Cl)c(NCc4ccccc4)nc3n2)CC1: 0 (no)
c1ccc2c(c1)nnn2CNc1ccc(N2CCOCC2)cc1: 0 (no)
Fc1ccc(NC(=S)SCc2ccc3c(c2)OCO3)cc1F: 0 (no)
Cc1ccc(S(=O)(=O)NC(=O)NC(CCCCNC(=N)N)C(=O)O)cc1 (stereo unspecified): 0 (no)
NC(=O)c1ccccc1NC(=O)C(=O)C(c1cnc2ccc([N+](=O)[O-])cc2n1)[N+](=O)[O-] (stereo unspecified): 0 (no)

----------
# Test system: OVCAR-5
# ASSAY DETAILS: NCI tumour cell line growth inhibition, 48 h
Active and inactive are the calls of the source. Rule as the data show it: active = GI50 up to about 1.1 µM and inactive = higher.
QUANTITY NAME: GI50

CN(C)CCNc1ccc2nnn3c4ccccc4c(=O)c1c23: 3.72 µM (inactive)
CCOC(=O)c1cn2c(n1)sc1cc([N+](=O)[O-])ccc12: > 100 µM (inactive)
O=c1[nH]nc(-c2ccccc2)n1O: > 100 µM (inactive)
O=C1C(=O)N(c2ccc(Cl)cc2)C(=O)/C(=N/c2cccc3c(=O)[nH][nH]c(=O)c23)C1c1nc2ccccc2o1 (stereo unspecified): > 100 µM (inactive)
COCC#C[C@@]1(O)CCCCC1CC(OC)OC (stereo partly specified): > 100 µM (inactive)
C/C(=N\O)c1ccc2cc(Br)c3ccccc3c2c1: 11.5 µM (inactive)
COP(C)(=O)/C(Cc1ccccc1)=N\O (stereo unspecified): > 100 µM (inactive)
CC(C)C(=O)/C=C/c1ccc(Br)cc1: 14.4 µM (inactive)
COC(=O)c1cc2c(s1)C(=O)c1ccccc1-2: > 100 µM (inactive)
O=C(O)c1oc(C(=O)O)c(C(=O)O)c1C(=O)O: > 100 µM (inactive)
COC1C(OC(=O)/C=C/C=C/C=C/C=C\C(=O)O)CCC2(CO2)C1C1(C)OC1CC=C(C)C (stereo unspecified): > 100 µM (inactive)

----------
# Tested on: A549
# ASSAY DETAILS: NCI tumour cell line growth inhibition, 48 h
The source made the active and inactive calls. No stated cut-off is given here; in the data, active = GI50 up to about 1.1 µM and inactive = higher. Where a SMILES comes first, the peptide text is derived from it. The star is where a group is joined. Boc = CC(C)(C)OC(=O)*
Recorded GI50, one value per entry.
QUANTITY NAME: GI50

CN(C)C(=O)Oc1ccc(C(=S)Nc2ccccc2)cc1Br: 33 µM (inactive)
COC(=O)CSc1nnc(-c2ccccc2)[nH]1: > 100 µM (inactive)
Cc1nc2n(c1/C=C1/C(=O)Nc3cccc(Cl)c31)CCS2: 56.1 µM (inactive)
CC1CC(=O)Nc2cc(Cl)ccc2N1C(=O)C1CC1 (stereo not given): > 100 µM (inactive)
C[C@]12CC/C(=N\O)C=C1CC[C@@H]1[C@@H]2CC[C@]2(C)C(=N/O)/C(=C/c3ccc([N+](=O)[O-])cc3)C[C@@H]12: 3.94 µM (inactive)
O=C(O)CNS(=O)(=O)c1ccc(NC(=O)c2ccc(F)cc2)cc1: > 100 µM (inactive)
CCOC(=O)c1cn2c(n1)sc1cc([N+](=O)[O-])ccc12: > 100 µM (inactive)
O=C1CCC(=O)C(C(=O)CCC(=O)Nc2cccc(Cl)c2)C1 (stereo not given): > 100 µM (inactive)
Cc1cc(-c2nc3ccccc3s2)ccc1NC(=O)[C@@H](N)CCCCN: 6.14 µM (inactive)
COC(=O)[C@H](Cc1ccc(O)cc1)NC(=O)[C@H](Cc1ccc(O)cc1)NC(=O)OC(C)(C)C (Boc-Tyr-Tyr-OMe): > 100 µM (inactive)
